The following compounds each carry a recorded pKi for HPK1 (Homo sapiens (Human)).
Just so you know, pKi here is -log10 of the concentration in molar units; reply with that number alone.

Below, each entry is followed by its recorded pKi result.
INSERT INTO measurements (compound, result) VALUES
  ('CN(C)C(=O)c1c(N)ccc(-c2cnc3c(c2Cl)[C@]2(CC[C@@H](S(C)(=O)=O)CC2)CN3)c1F [Compound 273a]', 7.35),
  ('CN(C)C(=O)c1cccc(-c2cnc3c(c2Cl)C2(CC=CC2)CN3)c1F [Compound 227]', 7.95),
  ('C[C@@H]1Nc2ncc(-c3ccc(N)c(C(=O)N(C)C)c3F)cc2C12CC2 (single isomer, unassigned) [Compound 128b]', 7.38);

Task item: Please give the measured pKi for this compound: Clc1c(-c2ccc3[nH]ncc3c2)cnc2c1C1(CC=CC1)CN2 [Compound 285]
Reply: 6.43
